Recorded measurements of OSBP (FP) inhibition, one per entry
- Target or test system: OSBP (Homo sapiens)
- Construct: OSBP(377-807); host or cells: E. coli OverExpress C41
- Sequence (P22059 377-807): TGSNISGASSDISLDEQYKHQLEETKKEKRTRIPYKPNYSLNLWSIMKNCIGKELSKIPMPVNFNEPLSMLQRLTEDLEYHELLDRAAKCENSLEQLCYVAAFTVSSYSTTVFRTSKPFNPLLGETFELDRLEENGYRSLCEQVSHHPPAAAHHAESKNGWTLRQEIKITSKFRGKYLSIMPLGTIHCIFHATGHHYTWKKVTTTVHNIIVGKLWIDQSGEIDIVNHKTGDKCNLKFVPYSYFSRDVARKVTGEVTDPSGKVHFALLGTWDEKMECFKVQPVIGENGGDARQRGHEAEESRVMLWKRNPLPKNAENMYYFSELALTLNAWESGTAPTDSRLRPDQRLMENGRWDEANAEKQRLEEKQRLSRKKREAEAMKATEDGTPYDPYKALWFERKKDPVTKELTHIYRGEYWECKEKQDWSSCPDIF
- Protocol details: Fluorescence polarisation (FP) competition with NBD-cholesterol, OSBP
- Type: binding
- Cond: single dose, Dose = 10 µM
Value expressed in %; do not type the unit.

Worked cases, OSBP (FP) inhibition given:
[
  {
    "Molecule": "Cc1nc2c(s1)CC[C@@H]1C[C@H](O)CC[C@]21C",
    "OSBP (FP) inhibition, %": -1.3
  },
  {
    "Molecule": "C[C@]12CC[C@@H](O)C[C@H]1CCC[C@]21Nc2ccccc2-n2cccc21",
    "OSBP (FP) inhibition, %": 10.0
  },
  {
    "Molecule": "Cc1c2c(nc3cc(Br)ccc13)[C@@]1(C)CC[C@@H](O)C[C@H]1CC2",
    "OSBP (FP) inhibition, %": -4.0
  },
  {
    "Molecule": "CC12CCC3CC1CCC21C(=Nc2ccc(N4CCOCC4)cc21)O3 (single isomer, unassigned; (-)) [(−)-19a]",
    "OSBP (FP) inhibition, %": 6.2
  },
  {
    "Molecule": "C[C@]12CC[C@@H](O)C[C@H]1CCC(=O)c1cc(Cl)cc(F)c1NC2=O [Compound 11f]",
    "OSBP (FP) inhibition, %": 9.0
  },
  {
    "Molecule": "C[C@]12CC[C@@H](O)C[C@H]1CCc1sc(-c3ccc(F)cc3)nc12",
    "OSBP (FP) inhibition, %": 1.3
  }
]

Next item in the queue.
QUERY: Name the recorded OSBP (FP) inhibition for COc1ccc2c(c1)C(=O)N[C@]1(CCC[C@@H]3C[C@H](O)CC[C@@]31C)N2 .
RESULT: 6.4

Provenance of the data: paper PMC11758220
